Target: Sulfhydryl oxidase 1 (Homo sapiens) (UniProt O00391)
Sequence (O00391 whole entry, looked up): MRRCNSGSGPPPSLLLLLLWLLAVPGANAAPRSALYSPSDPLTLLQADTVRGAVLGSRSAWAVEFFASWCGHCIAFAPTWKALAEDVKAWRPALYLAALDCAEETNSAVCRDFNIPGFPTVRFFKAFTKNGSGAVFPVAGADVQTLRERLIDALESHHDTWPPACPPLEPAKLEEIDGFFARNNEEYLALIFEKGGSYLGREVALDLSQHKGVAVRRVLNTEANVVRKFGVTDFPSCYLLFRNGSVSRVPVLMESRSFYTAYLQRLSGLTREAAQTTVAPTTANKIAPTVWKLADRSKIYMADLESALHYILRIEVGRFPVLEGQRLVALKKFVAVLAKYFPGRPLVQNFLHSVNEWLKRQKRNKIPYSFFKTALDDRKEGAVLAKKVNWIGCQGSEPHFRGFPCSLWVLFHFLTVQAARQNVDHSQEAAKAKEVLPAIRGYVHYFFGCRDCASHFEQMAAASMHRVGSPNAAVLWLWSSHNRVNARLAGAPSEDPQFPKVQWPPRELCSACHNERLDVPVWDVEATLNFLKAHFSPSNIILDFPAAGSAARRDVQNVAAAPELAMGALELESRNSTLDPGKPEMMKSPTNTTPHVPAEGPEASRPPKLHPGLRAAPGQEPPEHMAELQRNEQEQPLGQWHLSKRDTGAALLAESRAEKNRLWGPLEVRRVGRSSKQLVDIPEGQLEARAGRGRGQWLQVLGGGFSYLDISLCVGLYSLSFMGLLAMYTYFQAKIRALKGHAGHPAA
Assay: inhibition of human sulfhydryl oxidase QSOX1 – biochemical, HyperBlu H2O2 luminescence, HTS, primary screen (AID 1347420); note: values above 100% were filed as inconclusive
Settings: recombinant QSOX1, HyperBlu H2O2 luminescence; at 12.5 µM; active compounds read high; active = any value above zero
Screen size: about 1,300 compounds; about 980 (75%) were called active. Inconclusive results (about 4%) are left out. The list shows a part of the results.
Parameter threshold = 10%. Response is y when inhibition meets or exceeds it, else n.

// known answers, use as guide
NC(=O)c1cccc(N)c1
y
CN1CCN2c3ccccc3Cc3ccccc3C2C1 (stereo not drawn)
n

Kindly determine if inhibition recorded for `COc1cc2c(c(OC)c1OC)-c1ccc(OC)c(=O)cc1[C@@H](NC(C)=O)CC2` is above or exactly 10%.
n

Tell me whether inhibition is at least 10% here: `Nc1nnc(-c2cccc(Cl)c2Cl)c(N)n1`
n

Reported inhibition at or above 10%? `Oc1ccc(Cn2cc[nH]c2=S)cc1`
y

Has `NC(=O)c1ccccc1` a recorded inhibition greater than or equal to 10%?
n

Kindly determine if inhibition recorded for `NC(=O)c1ccc2[nH]ccc2c1` is above or exactly 10%.
n

# check: inhibition of `Brc1c(NC2=NCCN2)ccc2nccnc12` is greater than or equal to 10%
y
